Just for reference, patent US20230265187A1 is where these values come from.

# TARGET_ENTITY: T1, his-tagged human TIGIT (Acro Biosystems #TIT-H52H3) (human, UniProt Q495A1 22-141)
# T1 construct: Bought protein; also called His-tagged-TIGIT (human); not shown: his tag
# T1 sequence (looked up): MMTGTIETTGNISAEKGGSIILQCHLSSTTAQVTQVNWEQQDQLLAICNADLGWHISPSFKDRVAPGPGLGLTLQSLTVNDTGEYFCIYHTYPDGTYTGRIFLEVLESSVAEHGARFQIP
# PROTOCOL_DETAILS: SPR (Carterra LSA), scFv-Fc captured, His-TIGIT analyte
Could you mark each record 1 if its Kd falls strictly under 1 nM, and -1 if it equals or exceeds it?

Solved entries (count: 4):
BINDER	CLASS_NAME
43586p2.H02 (scFv, V domains shown) VH: EVQLLESGGGLVQPGGSLRLSCATSGFTVSDHYVSWVRQAPGKGLEWVSTSSSTNWNDGRTYYADSVKGRFTISRDNSENTLYLQMNSLRAEDTAVYYCAKGSYGMDVWGQGTTVTVSS VL: QSVLTQPPSASGTPGQRVTISCSASNSYIGTKYFYWYQQLPGTAPKLLIYLDSQRPSGVPDRFSGSKSGTSVSLAISGLQSEDEADYYCAFWDDHLHGWVFGGGTKLTVL	-1
43586p2.B05 (scFv, V domains shown) VH: EVQLLESGGGLVQPGGSLRLSCAASGFTFSDYYMNWVRQAPGKGLEYVASINWNGGTTYYADSVKGRFTISRDNSKNTLYLQMSSLRAEDTAVYYCAKDQNWNFYYGMDVWGQGTTVTVSS VL: QSVLTQPPSASGTPGQRVTISCSGGSSNIGNNFVSWYQQLPGTAPKLLIYNEIKRPSGVPDRFSASKSGTSASLAISGLQSEDEADYYCASWDGSLRGWVFGGGTKLTVL	1
43586p1.2.E2 (scFv, V domains shown) VH: EVQLLESGGGLVQPGGSLRLSCAASGFTFTSYLMSWVRQAPGKGLEWVSTITWDGDRTYYADSVKGRFTISRDNSKNTLYLQMNSLRVGDTAVYYCAKHWTVFQYGMDVWGQGTTVTVSS VL: QSVLTQPASASGTPGQRVTISCSGTISNIETKYVSWYQQLPGTAPKLLIYGNHQRPSGVPDRFSGSKSGTSASLAISGLQSEDEADYYCASWENDLKSWVFGGGTKLTVL	1
43586p2.D11 (scFv, V domains shown) VH: EVQLLESGGGLVQPGGSLRLSCAASGFTFDDYVMSWVRQAPGKGLEWVSLINWSGGTTYYADSVKGRFTISRDNSKNTLYLQMNSLRAEDTAVYYCAKHWIVYQYGMDVWGQGTTVTVSS VL: QSVLTQPSSASGTPGQRVAISCSGTISNIETKYVSWYKYVSWYQQLPGTAPKLLIYNNVQRPSGVPDRFSGSQSGTSASLAISGLQSEDEAHYYCASWEGGLNSWVFGGGTKLTVL	1

query: Threshold test, Kd < 1 nM: 43586p1.1.G9 (scFv, V domains shown) VH: EVQLLESGGGLVQPGGSLRLSCAASGFTFTTYAMSWVRQAPGKGLEWVAGISYIGSDKYYADSVKGRLTISRDNSKNTLYLQMDSLRAEDTAVYYCAKHLTGGTTDYYYYGMDVWGQGTTVTVS VL: QSVLTQPPSASGTPGQRVTISCSGSTSNIGTSRYVHWYQHLPGTAPKLLIYLDSQRPSGVPDRFSASKSGTSASLAISGLQSEDEADYYCSAWDDSLSAWVFGGGTKLTVL
result: -1
